Tested on: HEK293
Protocol details: Cytotoxic Profiling of Annotated Libraries Using Quantitative High-Throughput Screening (AID 1296008); note: nearly all actives have a fitted effect of over 60% in size
Condition context: Five cell lines viability, CellTiter-Glo ATP luminescence, 48-72 h
Inconclusive results are not listed. Calls of active or inactive are those of the source. Calls come from the whole dose curve; as a rule, active = well fitted inhibition curve with a large enough effect; inconclusive = small, poorly fitted or top-dose-only effect; inactive = flat fitted curve, though single readings scatter.
Reply using exactly one outcome from active, inactive

>  <Compound>
CO[C@@H](C(=O)N1Cc2[nH]nc(NC(=O)c3ccc(N4CCN(C)CC4)cc3)c2C1)c1ccccc1

>  <Label>
active

$$$$

Ask: For this compound, state the assay outcome: `CN(C)C1CCN(C(=O)c2ccc(NC(=O)Nc3nc(N4CCOCC4)nc(N4CCOCC4)n3)cc2)CC1`
Result: active

Ask: Please indicate how the test categorized `Cc1ccc([C@@H]2O[C@H](CO)[C@@H](O)[C@H](O)[C@@H]2O)cc1Cc1ccc(-c2ccc(F)cc2)s1` .
Result: active

---

Protocol details: qHTS profiling of the MIPE4 collection as inhibitors of Plasmodium falciparum (DD2) proliferation (Rep 2) (AID 743346)
Condition context: P. falciparum Dd2 in erythrocytes, SYBR Green DNA, 72 h; at 28.5 µM (top of the series) unless noted
Method: Plasmodium falciparum is a virulent malarial parasite that kills 1-2 million people worldwide each year. […] Because mature erythrocytes lack DNA, only Plasmodium-derived DNA is detected. The SYBR Green viability assay was adapted from a method described previously (Plouffe et al., 2008). […] The following morning, fluorescence intensity at 485(14) nm excitation and 535(25) nm emission wavelengths was measured on an EnVision (Perkin Elmer) plate reader. […]
Rule: parasite growth, % of control (lower = inhibition) below 20% gives true. Equal to or above 20% gives false.

Consider the following illustrative entries.
>  <Compound>
O=C(Nc1c(Cl)cncc1Cl)c1ccc(OC(F)F)c(OCC2CC2)c1

>  <Label>
false

$$$$
>  <Compound>
CCN(CC)CCOc1ccc(C(=C(Cl)c2ccccc2)c2ccccc2)cc1

>  <Label>
true

$$$$
>  <Compound>
CC[C@]1(O)C[C@@H]2CN(CCc3c([nH]c4ccccc34)[C@@](C(=O)OC)(c3cc4c(cc3OC)N(C=O)[C@@H]3C45CCN4CC=C[C@](CC)([C@H]45)[C@@H](OC(C)=O)[C@]3(O)C(=O)OC)C2)C1 (some centres not stated)

>  <Label>
true

$$$$

Ask: For `CN(C)C1CCN(C(=O)c2ccc(NC(=O)Nc3nc(N4CCOCC4)nc(N4CCOCC4)n3)cc2)CC1` , is the recorded parasite growth, % of control (lower = inhibition) below the cut-off of 20%?
Result: true

Ask: Dear colleague, could you confirm whether parasite growth, % of control (lower = inhibition) of `CC[C@H]1OC(=O)[C@H](C)C(=O)[C@H](C)[C@@H](O[C@H]2O[C@H](C)C[C@H](N(C)C)[C@@H]2O)[C@](C)(OC)C[C@@H](C)C(=O)[C@H](C)[C@H]2N(CCCCn3cnc(-c4cccnc4)c3)C(=O)O[C@]12C` falls below 20%? Thanks.
Result: false

Ask: Does the reported parasite growth, % of control (lower = inhibition) of `CN(C)Cc1cccc(N=C(c2ccccc2)c2c(O)[nH]c3cc(C(=O)N(C)C)ccc23)c1` stay below 20%?
Result: true

Ask: In plain terms, does `CO[C@H]1C[C@@H]2CC[C@@H](C)[C@@](O)(O2)C(=O)C(=O)N2CCCC[C@@H]2C(=O)O[C@H]([C@H](C)C[C@@H]2CC[C@H](OC(=O)C(C)(CO)CO)[C@H](OC)C2)CC(=O)[C@H](C)C=C(C)[C@@H](O)[C@@H](OC)C(=O)[C@H](C)C[C@H](C)C=CC=CC=C1C` come in under 20% for parasite growth, % of control (lower = inhibition)?
Result: true
